system: HT-29; assay: Induction of PARP cleavage in human HT29 cells after 8 hrs; format: functional, cell-based
Calls of active or inactive are those of the source. No cut-off for these calls is given here.
readout_name: Activity

[[record]]
compound = "CC(=O)Oc1ccc(CO[N+](=O)[O-])cc1"
readout_name = "Activity"
meas_value = "Active"

[[record]]
compound = "CC(=O)Oc1ccccc1C(=O)Oc1ccc(CO[N+](=O)[O-])cc1"
readout_name = "Activity"
meas_value = "Active"

[[record]]
compound = "CC(=O)Oc1ccc(CCl)cc1"
readout_name = "Activity"
meas_value = "Active"

[[record]]
compound = "CC(=O)Oc1ccccc1C(=O)Oc1ccc(CCl)cc1"
readout_name = "Activity"
meas_value = "Active"

